Molecular target: T1, human GIP receptor (human) (UniProt P48546)
T1 sequence (looked up): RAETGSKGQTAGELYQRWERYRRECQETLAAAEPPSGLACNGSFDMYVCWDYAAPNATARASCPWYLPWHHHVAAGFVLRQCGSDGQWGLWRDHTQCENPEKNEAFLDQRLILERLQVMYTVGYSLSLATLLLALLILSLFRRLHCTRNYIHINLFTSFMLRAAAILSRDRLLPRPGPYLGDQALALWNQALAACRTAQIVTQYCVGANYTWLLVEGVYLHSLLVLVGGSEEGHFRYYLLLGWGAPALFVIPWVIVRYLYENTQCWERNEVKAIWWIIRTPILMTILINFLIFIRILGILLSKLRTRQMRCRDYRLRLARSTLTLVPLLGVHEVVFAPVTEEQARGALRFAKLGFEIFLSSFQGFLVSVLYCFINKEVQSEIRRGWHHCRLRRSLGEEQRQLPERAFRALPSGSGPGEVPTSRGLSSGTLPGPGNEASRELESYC
Assay: cell-based or functional assay
test.readout: cAMP Rel EC50 (1% HSA) (nM)
Record the value in nM, omitting the unit from your answer.

Ask: Provide measured cAMP Rel EC50 (1% HSA) value, entry: YXQGTFTSDXSKXLDKKAQXAFIEYLIEXGPSSGAPPPSGSE (AEEA-γGlu-C18 diacid on Lys; non-natural residues; amide; synthetic construct; SITE 2: note = 2-Aminoisobutyric Acid; SITE 10: note = 3-(4-Pyridyl)-L-alanine; SITE 13: note = alpha-methyl-leucine; SITE 17: note = Lysine is chemically modified through conjugation of the epsilon-amino group of the Lysine side chain with (2-[2-(2-Amino-ethoxy)-ethoxy]-acetyl)) [Example 901]
Reply: 34

Ask: Give me measured cAMP Rel EC50 (1% HSA), please, for this binder: YXQGTFTSDXSQXLDXKAQXQFIEXLIAGGPSSGAPPPSGSEEE (Aib, 4Pal, Orn, Me4Pal, alpha-methyl-Tyr, lipidated Lys, amide; synthetic construct; SITE 2: note = 2-Aminoisobutyric Acid; SITE 10: note = 3-(4-Pyridyl)-L-alanine; SITE 13: note = alpha-methyl-leucine; SITE 16: note = L-ornithine; SITE 17: note = Lysine is chemically modified through conjugation of the epsilon-amino group of the Lysine side chain with D-Glutami) [Example 1081]
Reply: 8.44

Ask: Given the binder YXQGTXTSDXSILLDXKAQXAFIEXLEEGGPSSGAPPPSGTGE (synthetic construct; SITE 2: note = 2-Aminoisobutyric Acid; SITE 6: note = alpha-methyl-2-fluoro-L-phenylalanine; SITE 10: note = 3-(4-Pyridyl)-L-alanine; SITE 16: note = L-ornithine; SITE 17: note = Lysine is chemically modified through conjugation of the epsilon-amino group of the Lysine side chai) [Example 665] , write its reported cAMP Rel EC50 (1% HSA).
Reply: 2.1
